Quick list: isoTOP-ABPP ratio (reactivity profile), Q15084_C190 per entry.
Molecular target: UniProt Q15084
Sequence (Q15084 20-440): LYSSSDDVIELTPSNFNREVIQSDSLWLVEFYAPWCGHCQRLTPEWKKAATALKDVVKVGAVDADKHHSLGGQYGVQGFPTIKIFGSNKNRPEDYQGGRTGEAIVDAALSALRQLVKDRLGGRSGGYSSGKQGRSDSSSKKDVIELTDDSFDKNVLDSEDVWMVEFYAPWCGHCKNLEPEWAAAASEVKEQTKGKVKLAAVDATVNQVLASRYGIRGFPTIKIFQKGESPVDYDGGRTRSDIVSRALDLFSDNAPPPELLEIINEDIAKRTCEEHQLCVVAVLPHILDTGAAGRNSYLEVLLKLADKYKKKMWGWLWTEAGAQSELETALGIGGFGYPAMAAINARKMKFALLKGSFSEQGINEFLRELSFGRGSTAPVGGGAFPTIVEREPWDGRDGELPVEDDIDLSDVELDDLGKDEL
Assay: Competitive isoTOP-ABPP, cell lysates
Format: binding
Settings: 500 μm in-vitro ramos_231
Lab note: record just the number, no unit beside it.

Known results for compounds:
[[record]]
compound = "COc1ccccc1OCCNC(=O)CCl"
target_entity = "UniProt Q15084"
assay_value = 1.1

[[record]]
compound = "O=C(CCl)N1CCOCC1"
target_entity = "UniProt Q15084"
assay_value = 2.2

[[record]]
compound = "O=C(CCl)NC12CC3CC(CC(C3)C1)C2"
target_entity = "UniProt Q15084"
assay_value = 1.1

[[record]]
compound = "O=C(CCl)N1CCC(C(O)(c2ccccc2)c2ccccc2)CC1"
target_entity = "UniProt Q15084"
assay_value = 2.1

[[record]]
compound = "CC(C)CCOCCNC(=O)CCl"
target_entity = "UniProt Q15084"
assay_value = 0.9

[[record]]
compound = "CC(Cl)C(=O)Nc1cc(C(F)(F)F)cc(C(F)(F)F)c1 (centres unmarked)"
target_entity = "UniProt Q15084"
assay_value = 1.0


Exam item: Requested read-out: isoTOP-ABPP ratio (reactivity profile), Q15084_C190. Entry: `N#C/C(=C\c1cc(C(F)(F)F)cc(C(F)(F)F)c1)C(N)=O`
Marked response: 0.8

Exam item: Requested read-out: isoTOP-ABPP ratio (reactivity profile), Q15084_C190. Entry: `O=C(CCl)N1CCN(CC(=O)N2CCOCC2)CC1`
Marked response: 1.2

Hey, just so you know, these numbers are from patent US10670605B2.
